experiment: viability profiling in RPMI8226 myeloma cells – cell-based, resazurin fluorescence, basal, 24 h, PK04 Diversity Set, profiling panel (AID 1180); settings: higher = more signal;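 further: RPMI8826 multiple myeloma cell line at 5000 cells per well; test concentration not given here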
parameter.measured: z-score

input: # input compound: CC(=O)NCCCC[C@@H]1NC(=O)[C@@H]2C[C@H](C(=O)NCCCC[N+](C)(C)C)[C@H](c3cccc(OCCO)c3)N2C1=O ; wanted: its z-score
output: -0.803

input: What does the record list as z-score for CCCCC(=C=CC[C@H](O)c1cccc(OCCO)c1)C[C@H](O)COCc1ccccc1 ?
output: 0.774

input: Which z-score is reported for this compound? Cc1cc(C)c(C(O)C2C=CC3C(=O)N(c4ccccc4)C(=O)C3N2Nc2ccc([N+](=O)[O-])cc2)c(C)c1 (centres undefined)
output: 0.0375

input: What measured z-score goes with COC(=O)[C@@]1(Cc2ccccc2)[C@H]2c3cc(C(=O)N(C)C)n(Cc4ccc(O)c(OC)c4)c3C[C@H]2CN1C(=O)c1ccccc1 ?
output: -1.24

input: Please give the measured z-score for this compound: COCCCNC(=O)[C@@]1(C)c2ccccc2C(=O)N(c2ccc(C)cn2)[C@H]1c1ccc(CO)cc1
output: 0.157

input: Fill blank: measured z-score of the compound CC(C)(C)OC(=O)CC[C@@]1(C(=O)N2CCCCC2)N=C(c2ccc(OCCCO)cc2)O[C@@H]1c1ccccc1N=[N+]=[N-] is ____.
output: -0.408

input: Give its z-score value. Item: COC(=O)C(CC#Cc1ccc2c(c1)[C@]1(C(=O)N2)[C@H](c2ccc(O)cc2)N2[C@H](c3ccccc3)[C@H](c3ccccc3)OC(=O)[C@H]2[C@@H]1C(N)=O)C(=O)OC
output: 1.1

input: What z-score value was documented for this compound, COCCOC(=O)N1C(=O)[C@@]2(c3cc(C#CC4(O)CCCCCC4)ccc31)[C@H](C(=O)N1CCN(c3ncccn3)CC1)[C@H]1C(=O)O[C@H](c3ccccc3)[C@H](c3ccccc3)N1[C@@H]2c1ccc(O)cc1 ?
output: 0.74

input: # lookup: z-score of CCOc1cc(C(O)C2C=CC3C(=O)NC(=O)C3N2Nc2ccccn2)ccc1O (centres undefined)
output: -0.672

input: May I ask what z-score has been recorded for CCCCC(CC)C(O)C1C=CC2C(=O)NC(=O)C2N1Nc1ccccn1 (centres undefined) ?
output: -0.675

input: Can you look up the measured z-score of CN(C)C(=O)[C@@]1(CCS(=O)(=O)c2ccccc2)N=C(c2ccc(OCCCO)cc2)O[C@H]1c1ccccc1CN=[N+]=[N-] for me?
output: 0.251

input: Please look up its z-score: CC(C)(C)OC(=O)CC[C@@]1(C(=O)N2CCCCC2)N=C(c2ccc(OCCCO)cc2)O[C@@H]1c1ccccc1CN=[N+]=[N-]
output: 0.0127

input: Consider the compound shown here: COc1ccc(C#Cc2ccc3c(c2)[C@]2(C(=O)N3)[C@H](c3ccc(OCCO)cc3)N3[C@H](c4ccccc4)[C@H](c4ccccc4)OC(=O)[C@H]3[C@@H]2C(=O)N2CCN(c3ncccn3)CC2)cc1 What is its recorded z-score?
output: 1.61

input: May I ask what z-score has been recorded for CCN(CC)c1ccc(N2CC=CC34O[C@@H]5/C=C\CCCOC(=O)C5[C@H]3C(=O)N(CCCCCCO)[C@@H]4C2=O)cc1 (some centres undefined) ?
output: 0.79

input: // query z-score value for entry COCCCNC(=O)[C@@H]1c2ccccc2C(=O)N(Cc2cc(F)cc(C(F)(F)F)c2)[C@H]1c1ccc(CO)cc1
output: -0.197

input: Any idea what z-score was measured for O=C1OCCC=C[C@H]2OC34C=CCN(Cn5nnc6ccccc65)C(=O)[C@H]3N(CCCCCO)C(=O)[C@@H]4C12 (some centres undefined) ?
output: 0.618

input: Endpoint output: z-score of O=C1C[C@@](C(=O)O)(c2ccc([N+](=O)[O-])cc2)[C@@H](c2ccc(CO)cc2)N1CC12CC3CC(CC(C3)C1)C2 . Value?
output: -0.474

input: Param item = Cc1ccc(S[C@]2(C(=O)O)CC(=O)N(Cc3ccccc3C(F)(F)F)[C@@H]2c2ccc(CO)cc2)cc1 ; retrieve measured z-score.
output: -0.285

input: Return reported z-score; argument: COC(=O)[C@]1(Cc2ccccc2CN=[N+]=[N-])N=C(c2ccc(OCCCO)cc2)O[C@@H]1c1ccccc1CN=[N+]=[N-]
output: -4.23

input: # query: z-score of entry COC(=O)c1c(CC[C@@H](CO)NC(=O)N[C@@H](C)Cn2cc(C3(O)CCCC3)nn2)oc(C(C)=O)c1C(=O)OC
output: -0.88

input: Suppose we examine the compound CC(C)=CCCC(C)=CC(O)C1C=CC2C(=O)N(c3ccccc3)C(=O)C2N1Nc1ccc([N+](=O)[O-])cc1 (centres undefined) ; what z-score value has been reported?
output: -0.276

input: Data request, read-out z-score, for CCCCC(O)C1C=CC2C(=O)N(Cc3ccccc3)C(=O)C2N1n1cnnc1 (centres undefined)
output: -0.409

input: Which value of z-score has been reported for C[C@@H]1ON(c2ccccc2)[C@H](c2ccccc2)[C@H]1C(=O)N1C(=O)OC[C@H]1Cc1ccccc1 in the records?
output: 0.852

input: Bench note: what z-score did COCC(=C=CC[C@@H](O)c1ccccc1OCCO)C[C@@H](O)c1ccccn1 show?
output: -0.348

input: May I ask what z-score has been recorded for O=C1O[C@H](c2ccccc2)[C@H](c2ccccc2)N2[C@H]1[C@@H](C(=O)NC[C@H](O)c1ccccc1)[C@]1(C(=O)Nc3ccccc31)[C@H]2c1ccccc1OCCO ?
output: -7.33

input: For OCc1ccc(-c2cc[n+](Cc3cccc(OC(F)(F)F)c3)cc2)cc1 , what is its reported z-score?
output: -0.784

input: Entry under review: O=C(NCc1ccccc1)[C@]1(Cc2ccccc2)N=C(c2ccc(OCCCO)cc2)O[C@@H]1c1ccccc1 . Reported z-score?
output: -1.79

input: Quick one: z-score of C[C@H]1ON(c2ccccc2)[C@@H](c2ccccc2)[C@@H]1C(=O)N1C(=O)OC[C@@H]1c1ccccc1 ?
output: 0.942

input: Which z-score value belongs to COCCOC(=O)N1C(=O)[C@@]2(c3cc(C#CCNC(N)=O)ccc31)[C@H](C(N)=O)[C@H]1C(=O)O[C@H](c3ccccc3)[C@H](c3ccccc3)N1[C@@H]2c1ccc(OCCO)cc1 ?
output: -1.09

###

biological target: Torsin-1A (Homo sapiens); assay: TOR1A wild-type binding on microarray – cell lysate, small-molecule microarray, lysate, 635/667 nm, primary screen (AID 1149); details: COS7 hTOR1A-WT lysate, 635 nm fluorescence, higher = more signal
Kindly supply the reported composite z-score values for the records listed here.
API note: the answer field is a bare number with no unit suffix.

input: Please report the recorded composite z-score for Cc1ccc(F)cc1S(=O)(=O)N[C@@H]1CCN(C(=O)c2ccc(OC(C)C)cc2)C1 .
output: 0.0677

input: Which composite z-score is listed for CCOC(=O)C[C@H]1[C@H](OC(=O)c2ccccc2-c2ccccc2)[C@@H](NC(=O)c2ccccc2)c2cc(OCCCO)ccc2N1C(=O)Cc1ccc(OC)cc1 ?
output: -0.193

input: Item NC(=O)NCC#Cc1ccc2c(c1)[C@]1(C(=O)N2)[C@H](c2ccc(O)cc2)N2[C@H](c3ccccc3)[C@H](c3ccccc3)OC(=O)[C@H]2[C@@H]1C(N)=O has what recorded composite z-score?
output: -1.49

input: Look up composite z-score: CCCCC(=C=CC[C@H](O)c1ccccc1OCCO)C[C@H](O)c1ccccn1
output: 0.718

input: Give its composite z-score value. Item: COC(=O)[C@@]1(Cc2ccc(OC)cc2)[C@H]2c3cc(C(=O)N(C)C)n(Cc4cc(F)c(F)c(F)c4)c3C[C@H]2CN1C(=O)c1ccccc1
output: -0.312

input: Recorded composite z-score for COc1ccc([Si](C)(C)[C@@H]2[C@@H](CCO)O[C@]3(C(=O)N(Cc4ccccc4)c4ccc(N5CCCCC5=O)cc43)[C@H]2C)cc1 , please?
output: -0.121

input: Give its composite z-score value. Item: CCOC(=O)C[C@H]1[C@H](OC(=O)c2ccc(C(=O)c3ccccc3)cc2)[C@@H](NC(=O)C2CCCCC2)c2cc(OCCCO)ccc2N1C(=O)Cc1ccc(OC)cc1
output: 0.192

input: Param item = CO[C@H]1O[C@H](CO)[C@@H](OC(=O)Nc2ccc(C(F)(F)F)cc2)[C@H](OC(=O)Nc2ccccc2)[C@H]1OC(=O)Nc1ccccc1 ; retrieve measured composite z-score.
output: 0.386

input: Bench note: what composite z-score did COC(=O)C(CC#Cc1ccc2c(c1)[C@]1(C(=O)N2)[C@H](C(=O)N2CCc3cc(OC)c(OC)cc3C2)[C@H]2C(=O)O[C@H](c3ccccc3)[C@H](c3ccccc3)N2[C@@H]1c1ccc(OCCO)cc1)C(=O)OC show?
output: 1.28

input: Which composite z-score is reported for this compound? NC(=O)NCC#Cc1ccc2c(c1)[C@]1(C(=O)N2)[C@H](c2ccc(OCCO)cc2)N2[C@H](c3ccccc3)[C@H](c3ccccc3)OC(=O)[C@H]2[C@@H]1C(=O)N1CCN(c2ncccn2)CC1
output: 0.539

input: # get_value(readout='composite z-score', item= Cc1cc(C)c(C(O)C2C=CC3C(=O)N(c4ccccc4)C(=O)C3N2Nc2ccccc2)c(C)c1 (centres undefined) )
output: 0.133

input: Which composite z-score is listed for Cc1cc(C)c(C(O)C2C=CC3C(=O)N(c4ccccc4)C(=O)C3N2Nc2ccc([N+](=O)[O-])cc2)c(C)c1 (centres undefined) ?
output: 0.567

input: Can you look up the measured composite z-score of CC1=C2[C@@H](CCc3ccccc3)OB(O)C[C@@H]2[C@@H]2C(=O)C=CC(=O)[C@@H]2C1 for me?
output: 0.355

input: State the recorded composite z-score for this entry: COC(=O)[C@@]1(Cc2ccccc2N=[N+]=[N-])N=C(c2ccc(OCCCO)cc2)O[C@H]1c1ccccc1
output: -0.89
